Where do the numbers come from? From PubChem BioAssay.

# procedureDetails: calorie-restriction mimetic ROS inhibitors, yeast – validation compound set, pilot screen (AID 2706);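 also: yeast exposed to compound for one week at 30 degrees C before staining; 100% = mean of all compound wells on the same plate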
# experimentalParameters: S. cerevisiae aging, superoxide DHE fluorescence; at 10 µM; stronger effect = lower value
The source made the active and inactive calls.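 The calls were made as follows: active = superoxide response below 65% of plate, a cut near 3 SD across the whole screen; inactive = the rest.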
# maps each entry to its superoxide response (% of plate)

Take a look at these entries with their results.
INSERT INTO assay_data (molecule, endpoint, result) VALUES
  ('COc1cccc(NC(=O)C2CC(=O)OC23CCOC(C)(C)C3)c1 (stereo not given)', 'superoxide response (% of plate)', '88.5% (inactive)'),
  ('N/C(=N\OC(=O)/C=C/c1ccccc1)c1ccc(Br)cc1', 'superoxide response (% of plate)', '107% (inactive)'),
  ('O=C(Nc1ccc(N2CCOCC2)cc1)c1ccc(-c2ccccc2[N+](=O)[O-])o1', 'superoxide response (% of plate)', '99.9% (inactive)'),
  ('Cc1cn([C@H]2C[C@H](N=[N+]=[N-])[C@@H](CO)O2)c(=O)[nH]c1=O', 'superoxide response (% of plate)', '88.8% (inactive)');

Please examine the following record next.
# superoxide response (% of plate) (molecule: `COc1cccc(/C=C/C(=O)c2c(O)cc(C)oc2=O)c1O` ) is 80.7% (inactive)
